DC50 for assorted compounds
# TARGET: SMARCA2 (Homo sapiens, UniProt P51531)
# Sequence (P51531 whole entry): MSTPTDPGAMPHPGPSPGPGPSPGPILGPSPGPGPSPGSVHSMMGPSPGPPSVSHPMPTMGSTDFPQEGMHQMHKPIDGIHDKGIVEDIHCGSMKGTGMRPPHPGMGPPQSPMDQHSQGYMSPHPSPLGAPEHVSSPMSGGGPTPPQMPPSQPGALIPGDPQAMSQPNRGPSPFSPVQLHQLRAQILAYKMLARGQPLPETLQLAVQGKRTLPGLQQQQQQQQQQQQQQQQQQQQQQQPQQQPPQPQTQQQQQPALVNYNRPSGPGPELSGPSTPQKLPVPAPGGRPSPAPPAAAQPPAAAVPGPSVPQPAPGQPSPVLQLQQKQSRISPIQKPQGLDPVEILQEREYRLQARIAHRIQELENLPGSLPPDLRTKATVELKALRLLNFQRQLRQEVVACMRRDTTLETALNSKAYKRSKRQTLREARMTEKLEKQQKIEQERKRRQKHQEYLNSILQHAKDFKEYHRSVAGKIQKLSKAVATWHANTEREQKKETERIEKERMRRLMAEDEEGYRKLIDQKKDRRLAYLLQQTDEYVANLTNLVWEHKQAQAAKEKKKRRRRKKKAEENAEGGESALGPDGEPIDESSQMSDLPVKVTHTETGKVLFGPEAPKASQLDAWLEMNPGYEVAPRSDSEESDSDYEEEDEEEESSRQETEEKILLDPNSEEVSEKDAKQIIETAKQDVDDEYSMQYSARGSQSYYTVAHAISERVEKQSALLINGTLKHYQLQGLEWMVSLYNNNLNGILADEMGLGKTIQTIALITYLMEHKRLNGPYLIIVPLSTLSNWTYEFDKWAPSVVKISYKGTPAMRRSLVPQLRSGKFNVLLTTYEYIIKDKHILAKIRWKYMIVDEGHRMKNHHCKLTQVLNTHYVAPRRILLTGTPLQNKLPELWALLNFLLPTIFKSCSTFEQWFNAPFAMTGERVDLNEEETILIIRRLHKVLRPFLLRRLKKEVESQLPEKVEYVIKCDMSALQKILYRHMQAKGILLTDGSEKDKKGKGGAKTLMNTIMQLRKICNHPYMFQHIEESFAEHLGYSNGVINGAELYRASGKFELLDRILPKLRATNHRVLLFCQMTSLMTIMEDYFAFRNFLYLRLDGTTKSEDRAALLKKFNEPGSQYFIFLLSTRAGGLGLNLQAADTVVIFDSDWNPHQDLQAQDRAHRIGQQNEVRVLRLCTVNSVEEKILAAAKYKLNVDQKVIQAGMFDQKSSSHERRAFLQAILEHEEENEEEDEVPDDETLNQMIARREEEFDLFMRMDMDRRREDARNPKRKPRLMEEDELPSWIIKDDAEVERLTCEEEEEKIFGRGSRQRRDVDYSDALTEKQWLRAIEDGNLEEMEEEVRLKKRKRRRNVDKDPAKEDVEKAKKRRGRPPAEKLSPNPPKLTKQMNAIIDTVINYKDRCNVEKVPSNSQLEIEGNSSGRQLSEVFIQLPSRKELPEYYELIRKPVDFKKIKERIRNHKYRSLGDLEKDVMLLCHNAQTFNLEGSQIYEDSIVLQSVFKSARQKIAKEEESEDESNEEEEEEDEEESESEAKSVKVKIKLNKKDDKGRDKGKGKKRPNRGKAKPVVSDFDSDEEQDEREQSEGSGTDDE
# PROCEDURE_DETAILS: SMARCA2 Western blot degradation in MV4-11 cells
# Type: cell-based
# Set-up: SMARCA2/SMARCA4 protein degradation selectivity in MV4-11 cells; endogenous in cells; host or cells: MV4-11
# TEST_CONTEXT: MV4-11 cells, 24 h; read-out: SMARCA2 MSD MV411 degradation 24 h: Mean external-Abs DC50

| COMPOUND | TARGET | DC50 |
| --- | --- | --- |
| C#Cc1ccc([C@H](C)NC(=O)[C@@H]2C[C@@H](O)CN2C(=O)[C@@H](OC(=O)N2CC3(CC(N4CCC(c5cnc(N6CCc7[nH]c8nnc(-c9ccccc9O)cc8c7[C@H]6C)nc5)CC4)C3)C2)C(C)(C)C)cc1 [I-150] | SMARCA2 (Homo sapiens, UniProt P51531) | 0.001 to 0.01 µM |
| C#Cc1ccc(CNC(=O)[C@@H]2C[C@@H](O)CN2C(=O)[C@@H](NC(=O)[C@H]2CCC3(CC2)C[C@H](N2CCN(c4cnc(N5CCN6c7cc(-c8ccccc8O)nnc7NC[C@H]6C5)nc4)CC2)C3)C(C)(C)C)c(OC)c1 (single isomer, unassigned) [I-196] | SMARCA2 (Homo sapiens, UniProt P51531) | 0.001 to 0.01 µM |
| C#Cc1ccc(CNC(=O)[C@@H]2C[C@@H](O)CN2C(=O)[C@@H](NC(=O)[C@H]2CC3(C2)C[C@H](N2CCC(N4CCC(N5CCN6c7cc(-c8ccccc8O)nnc7NC[C@H]6C5)CC4)CC2)C3)C(C)(C)C)c(OC)c1 (single isomer, unassigned) [I-231] | SMARCA2 (Homo sapiens, UniProt P51531) | 0.001 to 0.01 µM |
| Cc1ncsc1-c1ccc(CNC(=O)[C@@H]2C[C@@H](O)CN2C(=O)[C@@H](NC(=O)[C@H]2CC3(C2)C[C@H](N2CCN(c4cnc(N5CCc6[nH]c7nnc(-c8ccccc8O)cc7c6[C@H]5C)nc4)CC2)C3)C(C)(C)C)cc1 (single isomer, unassigned) [I-77] | SMARCA2 (Homo sapiens, UniProt P51531) | 0.001 to 0.01 µM |
| Cc1ncsc1-c1ccc(CNC(=O)[C@@H]2C[C@@H](O)CN2C(=O)[C@@H](NC(=O)[C@H]2CC3(C2)C[C@H](N2CCC(N4CCC(c5ccc6[nH]c7nnc(-c8ccccc8O)cc7c6c5)CC4)CC2)C3)C(C)(C)C)cc1 (single isomer, unassigned) [I-29] | SMARCA2 (Homo sapiens, UniProt P51531) | 0.01 to 0.1 µM |
| C#Cc1ccc(CNC(=O)[C@@H]2C[C@@H](O)CN2C(=O)[C@@H](NC(=O)[C@H]2CCC3(CC2)C[C@H](N2CCC(c4cnc(N5CCN6c7cc(-c8ccccc8O)nnc7NC[C@H]6C5)nc4)CC2)C3)C(C)(C)C)c(OC)c1 (single isomer, unassigned) [I-125] | SMARCA2 (Homo sapiens, UniProt P51531) | 0.001 to 0.01 µM |
| C#Cc1ccc(CNC(=O)[C@@H]2C[C@@H](O)CN2C(=O)[C@@H](NC(=O)[C@H]2CCC3(CC2)C[C@H](N2CCN(c4cnc(N5CCN6c7cc(-c8ccccc8O)nnc7NC[C@H]6C5)nc4)CC2)C3)C(C)(C)CCO)cc1 (single isomer, unassigned) [I-287] | SMARCA2 (Homo sapiens, UniProt P51531) | 0.001 to 0.01 µM |
| C#Cc1ccc(CNC(=O)[C@@H]2C[C@@H](O)CN2C(=O)[C@@H](NC(=O)N2CC3(CC(N4CCC(c5cnc(N6CCc7[nH]c8nnc(-c9ccccc9O)cc8c7[C@H]6C)nc5)CC4)C3)C2)C(C)(C)CCN2CCNCC2)cc1 [I-340] | SMARCA2 (Homo sapiens, UniProt P51531) | > 0.1 µM |
| Cc1ncsc1-c1ccc(CNC(=O)[C@@H]2C[C@@H](O)CN2C(=O)[C@@H](NC(=O)N2CC3(CC(N4CCN(c5cnc(N6CCc7[nH]c8nnc(-c9ccccc9O)cc8c7[C@H]6C)nc5)CC4)C3)C2)C(C)(C)C)cc1 [I-82] | SMARCA2 (Homo sapiens, UniProt P51531) | 0.001 to 0.01 µM |
| C#Cc1ccc(CNC(=O)[C@@H]2C[C@@H](O)CN2C(=O)[C@@H](NC(=O)[C@H]2CCC3(CC2)C[C@H](N2CCC(N4CCC(N5CCN6c7cc(-c8ccccc8O)nnc7NC[C@H]6C5)CC4)CC2)C3)C(C)(C)C)c(Cl)c1 (stereo partly shown) [I-222] | SMARCA2 (Homo sapiens, UniProt P51531) | 0.01 to 0.1 µM |

Query: DC50; subject: C#Cc1ccc(CNC(=O)[C@@H]2C[C@@H](O)CN2C(=O)[C@@H](NC(=O)N2CC3(CC(CN4CCC(N5CCC(N6CCc7[nH]c8nnc(-c9ccccc9O)cc8c7[C@H]6C)CC5)CC4)C3)C2)C(C)(C)C)cc1 [I-190]
0.01 to 0.1 µM

Find the recorded DC50 belonging to C#Cc1ccc2c(c1)OCC[C@H]2NC(=O)[C@@H]1C[C@@H](O)CN1C(=O)[C@@H](NC(=O)N1CC2(CC(N3CCC(c4cnc(N5CCc6[nH]c7nnc(-c8ccccc8O)cc7c6[C@H]5C)nc4)CC3)C2)C1)C(C)(C)C (single isomer, unassigned) [I-236] and report it.
> 0.1 µM

----------
List of Dmax values.
# TARGET: SMARCA2 (Homo sapiens)
# PROCEDURE_DETAILS: MSD SMARCA2 degradation in A549 cell line
# Type: cell-based
# TEST_CONTEXT: A549, A549 cells, 24 h
# Method: Example 10. MSD SMARCA2 Degradation in A549 Cell Line Cells were seeded into 96-well plates (A549 cells: 2×10^4 cells/well/100 ul media) and incubated overnight. […] The MSD plate was washed three times with 150 uL/well of TBST and 150 ul/well of 2× MSD reading buffer diluted from 4× (MSD, R92TC-2) with water was added. Lastly, the MSD instrument was read. […]

Examples with answers:
| COMPOUND | Dmax |
| --- | --- |
| C#Cc1ccc([C@H](C)NC(=O)[C@@H]2C[C@@H](O)CN2C(=O)C(c2cc(N3CCC(N4CCC(N5CCC(CN6CCN7c8cc(-c9ccccc9O)nnc8NC[C@H]7C6)CC5)CC4)CC3)no2)C(C)C)cc1 (stereo partly shown) | > 90% |
| C#Cc1ccc(CNC(=O)[C@@H]2C[C@@H](O)CN2C(=O)[C@H](NC(=O)N2CC3(CC(N4CCC(c5cnc(N6CCc7[nH]c8nnc(-c9ccccc9O)cc8c7[C@H]6C)nc5)CC4)C3)C2)C(C)(C)CCN2CCN[C@H](C(=O)O)C2)cc1 | < 50% |
| C#Cc1ccc([C@H](C)NC(=O)[C@@H]2C[C@@H](O)CN2C(=O)[C@@H](NC(=O)N2CC3(CC(N4CCC(c5cnc(N6CCc7[nH]c8nnc(-c9ccccc9O)cc8c7[C@H]6CO)nc5)CC4)C3)C2)C(C)(C)C)cc1 | > 90% |
| C#Cc1ccc([C@H](C)NC(=O)[C@@H]2C[C@@H](O)CN2C(=O)C(c2cc(N3CC4(CC(N5CCC(N6CCC(N7CCN8c9cc(-c%10ccccc%10O)nnc9NC[C@H]8C7)CC6)CC5)C4)C3)no2)C(C)C)cc1 (stereo partly shown) | > 90% |
| Cc1ncsc1-c1ccc(CNC(=O)[C@@H]2C[C@@H](O)CN2C(=O)C(c2cc(OC[C@H]3CC[C@H](N4CCC(c5cnc(N6CCc7[nH]c8nnc(-c9ccccc9O)cc8c7[C@@H]6C)nc5)CC4)CC3)no2)C(C)C)cc1 (single isomer, unassigned) | > 90% |
| Cc1ncsc1-c1ccc(CNC(=O)[C@@H]2C[C@@H](O)CN2C(=O)[C@@H](NC(=O)N2CC3(CCC(N4CCC(c5cnc(N6CCc7[nH]c8nnc(-c9ccccc9O)cc8c7[C@@H]6C)nc5)CC4)CC3)C2)C(C)(C)C)cc1 (single isomer, unassigned) | > 90% |
| CC#Cc1ccc(CNC(=O)[C@@H]2C[C@@H](O)CN2C(=O)[C@@H](NC(=O)[C@H]2CCC3(CC2)C[C@H](N2CCC(c4cnc(N5CCN6c7cc(-c8ccccc8O)nnc7NC[C@H]6C5)nc4)CC2)C3)C(C)(C)C)cc1 (single isomer, unassigned) | > 90% |
| C#Cc1ccc(CNC(=O)[C@@H]2C[C@@H](O)CN2C(=O)[C@@H](NC(=O)[C@H]2CCC3(CC2)C[C@H](N2CCN(c4cnc(N5CCN6c7cc(-c8ccccc8O)nnc7NC[C@H]6C5)nc4)CC2)C3)C(C)(C)C)cc1 (single isomer, unassigned) | > 90% |
| C#Cc1ccc(CNC(=O)[C@@H]2C[C@@H](O)CN2C(=O)[C@@H](NC(=O)N2CC3(CC(N4CCC(c5cnc(N6CCc7[nH]c8nnc(-c9ccccc9O)cc8c7[C@@H]6C)nc5)CC4)C3)C2)C(C)(C)C)cc1 | > 90% |
| C#Cc1ccc(CNC(=O)[C@@H]2C[C@@H](O)CN2C(=O)[C@@H](NC(=O)N2CC3(CC(N4CCC(N5CCc6[nH]c7nnc(-c8ccccc8O)cc7c6[C@H]5C)CC4)C3)C2)C(C)(C)C)cc1 | > 90% |

Please look up its Dmax: Cc1ncsc1-c1ccc(CNC(=O)[C@@H]2C[C@@H](O)CN2C(=O)[C@@H](NC(=O)C2(F)CC2)C(C)(C)C)c(OCCCCN2CCC(c3cnc(N4CCN5c6cc(-c7ccccc7O)nnc6NC[C@H]5C4)nc3)CC2)c1 (single isomer, unassigned)
> 90%

So what does the record say about Dmax for Cc1ncsc1-c1ccc(CNC(=O)[C@@H]2C[C@@H](O)CN2C(=O)[C@@H](NC(=O)[C@H]2CC3(CC[C@H](N4CCN(c5cnc(N6CCc7[nH]c8nnc(-c9ccccc9O)cc8c7[C@H]6C)nc5)CC4)CC3)C2)C(C)(C)C)cc1 (single isomer, unassigned) ?
> 90%

Could you tell me which Dmax is on file for C#Cc1ccc(CNC(=O)[C@@H]2C[C@@H](O)CN2C(=O)[C@@H](NC(=O)[C@H]2CCC3(CC2)C[C@H](N2CCC(c4cnc(N5CCN6c7cc(-c8ccccc8O)nnc7NC[C@H]6C5)nc4)CC2)C3)C(C)(C)C)c(Cl)c1 (single isomer, unassigned) ?
> 90%

Which Dmax value belongs to `C#Cc1ccc(CNC(=O)[C@@H]2C[C@@H](O)CN2C(=O)[C@@H](NC(=O)N2CC3(CC(N4CCC(c5cnc(N6CCc7[nH]c8nnc(-c9ccccc9O)cc8c7[C@H]6C)nc5)CC4)C3)C2)C(C)(C)CCN2CCN[C@@H](C(=O)O)C2)cc1` ?
< 50%

Would you kindly share the measured Dmax for `C#Cc1ccc(CNC(=O)[C@@H]2C[C@@H](O)CN2C(=O)[C@@H](NC(=O)N2CC3(CC(CN4CCC(N5CCC(N6CCc7[nH]c8nnc(-c9ccccc9O)cc8c7[C@H]6C)CC5)CC4)C3)C2)C(C)(C)C)cc1` ?
> 90%

Entry under review: C#Cc1ccc(CNC(=O)[C@@H]2C[C@@H](O)CN2C(=O)[C@@H](NC(=O)N2CCC[C@@H](CN3CCC(N4CCC(N5CCN6c7cc(-c8ccccc8O)nnc7NC[C@H]6C5)CC4)CC3)C2)C(C)(C)C)cc1 (single isomer, unassigned) . Reported Dmax?
< 50%
